Target: Thromboxane A2 receptor (Homo sapiens)
Sequence (whole entry): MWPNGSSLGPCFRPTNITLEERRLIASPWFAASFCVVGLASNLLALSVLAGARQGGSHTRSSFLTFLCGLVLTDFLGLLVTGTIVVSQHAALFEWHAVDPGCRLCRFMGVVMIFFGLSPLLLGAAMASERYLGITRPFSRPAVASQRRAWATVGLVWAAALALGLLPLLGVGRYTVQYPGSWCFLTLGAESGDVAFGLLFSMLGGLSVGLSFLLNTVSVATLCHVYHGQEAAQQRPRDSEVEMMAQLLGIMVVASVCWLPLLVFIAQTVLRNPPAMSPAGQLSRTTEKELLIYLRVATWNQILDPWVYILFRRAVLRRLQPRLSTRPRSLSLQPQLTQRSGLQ
Assay: Selectivity index, IC50 for TPalpha/IC50 for TPbeta in COS7 cells
Format: cell-based
Conditions: COS-7
Binary call on Ratio IC50 with cut-off 1: strictly below means label 1, and equality or higher means label 0.

Molecule smiles	Target of assay	Class
Cc1ccc(Sc2ccc([N+](=O)[O-])cc2S(=O)(=O)NC(=O)NC(C)(C)C)cc1	Thromboxane A2 receptor (Homo sapiens)	label 1
CCCCCNC(=O)NS(=O)(=O)c1cc([N+](=O)[O-])ccc1Nc1ccc(Br)c(C)c1	Thromboxane A2 receptor (Homo sapiens)	label 0
Cc1ccc(Oc2ccc([N+](=O)[O-])cc2S(=O)(=O)NC(=O)NC2CCCCC2)cc1	Thromboxane A2 receptor (Homo sapiens)	label 0
Cc1ccc(Nc2ccc([N+](=O)[O-])cc2S(=O)(=O)NC(=O)N2CCCCC2)cc1	Thromboxane A2 receptor (Homo sapiens)	label 1
CCCCCNC(=O)NS(=O)(=O)c1cc([N+](=O)[O-])ccc1Nc1cc(C)cc(C)c1	Thromboxane A2 receptor (Homo sapiens)	label 0
CCCCCNC(=O)NS(=O)(=O)c1cc([N+](=O)[O-])ccc1Nc1c(C)cccc1C	Thromboxane A2 receptor (Homo sapiens)	label 0
CCCCCCNC(=O)NS(=O)(=O)c1cc([N+](=O)[O-])ccc1NC1CCCCC1	Thromboxane A2 receptor (Homo sapiens)	label 1
CCCCCNC(=O)NS(=O)(=O)c1cc([N+](=O)[O-])ccc1Oc1ccc(C)cc1	Thromboxane A2 receptor (Homo sapiens)	label 0
Cc1ccc(Oc2ccc([N+](=O)[O-])cc2S(=O)(=O)NC(=O)NC(C)(C)C)cc1	Thromboxane A2 receptor (Homo sapiens)	label 1
CCCCCCCNC(=O)NS(=O)(=O)c1cc([N+](=O)[O-])ccc1NC1CCCCC1	Thromboxane A2 receptor (Homo sapiens)	label 1
Cc1ccc(Nc2ccc([N+](=O)[O-])cc2S(=O)(=O)NC(=O)NCc2ccccc2)cc1	Thromboxane A2 receptor (Homo sapiens)	label 0
Cc1ccc(Nc2ccc([N+](=O)[O-])cc2S(=O)(=O)NC(=O)NC(C)(C)C)cc1	Thromboxane A2 receptor (Homo sapiens)	label 0
CCCCNC(=O)NS(=O)(=O)c1cc([N+](=O)[O-])ccc1Oc1ccc(C)cc1	Thromboxane A2 receptor (Homo sapiens)	label 0
CCCCCCNC(=O)NS(=O)(=O)c1cc([N+](=O)[O-])ccc1Oc1ccc(C)cc1	Thromboxane A2 receptor (Homo sapiens)	label 1
CCCCCNC(=O)NS(=O)(=O)c1cc([N+](=O)[O-])ccc1Nc1cccc(C)c1	Thromboxane A2 receptor (Homo sapiens)	label 1
CCCCCNC(=O)NS(=O)(=O)c1cc([N+](=O)[O-])ccc1Nc1ccc(C)cc1	Thromboxane A2 receptor (Homo sapiens)	label 1
Cc1cccc(C)c1Nc1ccc([N+](=O)[O-])cc1S(=O)(=O)NC(=O)NC(C)(C)C	Thromboxane A2 receptor (Homo sapiens)	label 0

# credit: ChEMBL document CHEMBL1148650
